Test: AUC (0 to 24 hrs) in Sprague-Dawley rat at 20 mg/kg, po measured up to 24 hrs
Format: ADME, organism-based
Settings: in vivo
endpoint_name: AUC(0-t) at 24 h (ng·h/mL)
Answer with a number only, understood to be in ng·h/mL.

Q: Consider the compound COc1cc2c(cc1OC)[C@H]1Cc3ccc(NC(=O)NCc4ccc(OC(F)(F)F)cc4)cc3CN1CC2 and give its measured AUC(0-t) at 24 h.
A: 99500

* * *

Assay: AUC (0 to infinity) in Sprague-Dawley rat at 5 mg/kg, iv measured up to 24 hrs
Format: ADME, organism-based
Conditions: in vivo
endpoint_name: AUC(0-inf) (µg·h/mL)
Dear colleague, please return just the value in µg·h/mL, with no unit written.

Q: What value of measured AUC(0-inf) is listed for COc1cc2c(cc1OC)[C@H]1Cc3ccc(NC(=O)NCc4ccc(OC(F)(F)F)cc4)cc3CN1CC2 ?
A: 29.6

* * *

Experiment: Tmax in Sprague-Dawley rat at 5 mg/kg, iv measured up to 24 hrs
Type: ADME, organism-based
Conditions: in vivo
endpoint_name: Tmax (min)
Give a bare numeral; the unit min is implied.

Q: # get_value(readout='Tmax', item= COc1cc2c(cc1OC)[C@H]1Cc3ccc(NC(=O)NCc4ccc(OC(F)(F)F)cc4)cc3CN1CC2 )
A: 4.8

* * *

Assay: Cmax in Sprague-Dawley rat at 20 mg/kg, po measured up to 24 hrs
Type: ADME, organism-based
Conditions: in vivo
endpoint_name: Cmax (ng/mL)
Numbers only here, please. The scale is ng/mL.

Q: # query: Cmax of entry COc1cc2c(cc1OC)[C@H]1Cc3ccc(NC(=O)NCc4ccc(OC(F)(F)F)cc4)cc3CN1CC2
A: 10300

* * *

Assay: AUC (0 to 24 hrs) in Sprague-Dawley rat at 5 mg/kg, iv measured up to 24 hrs
Type: ADME, organism-based
Settings: in vivo
endpoint_name: AUC(0-t) at 24 h (ng·h/mL)
# number only, unit ng·h/mL dropped from output

Q: For the compound COc1cc2c(cc1OC)[C@H]1Cc3ccc(NC(=O)NCc4ccc(OC(F)(F)F)cc4)cc3CN1CC2 , what AUC(0-t) at 24 h is on record?
A: 27800

* * *

Test: Oral bioavailability in Sprague-Dawley rat at 20 mg/kg measured up to 24 hrs
Assay type: ADME, organism-based
Settings: in vivo
endpoint_name: bioavailability (%)
Please reply with the bare figure in % and do not write the unit itself.

Q: Name the recorded bioavailability for COc1cc2c(cc1OC)[C@H]1Cc3ccc(NC(=O)NCc4ccc(OC(F)(F)F)cc4)cc3CN1CC2 .
A: 89.3

* * *

Experiment: AUC (0 to infinity) in Sprague-Dawley rat at 20 mg/kg, po measured up to 24 hrs
Format: ADME, organism-based
Details: in vivo
endpoint_name: AUC(0-inf)

Q: Item under review: COc1cc2c(cc1OC)[C@H]1Cc3ccc(NC(=O)NCc4ccc(OC(F)(F)F)cc4)cc3CN1CC2 . Reported AUC(0-inf)?
A: 110 µg·h/mL

* * *

Experiment: Half life in Sprague-Dawley rat at 5 mg/kg, iv measured up to 24 hrs
Assay type: ADME, organism-based
Conditions: in vivo
endpoint_name: half-life (h)
Value expressed in h; do not type the unit.

Q: Return reported half-life; argument: COc1cc2c(cc1OC)[C@H]1Cc3ccc(NC(=O)NCc4ccc(OC(F)(F)F)cc4)cc3CN1CC2
A: 6.1
